ASSAY_SYSTEM: IDO1 (Homo sapiens)
Sequence (P14902 whole entry): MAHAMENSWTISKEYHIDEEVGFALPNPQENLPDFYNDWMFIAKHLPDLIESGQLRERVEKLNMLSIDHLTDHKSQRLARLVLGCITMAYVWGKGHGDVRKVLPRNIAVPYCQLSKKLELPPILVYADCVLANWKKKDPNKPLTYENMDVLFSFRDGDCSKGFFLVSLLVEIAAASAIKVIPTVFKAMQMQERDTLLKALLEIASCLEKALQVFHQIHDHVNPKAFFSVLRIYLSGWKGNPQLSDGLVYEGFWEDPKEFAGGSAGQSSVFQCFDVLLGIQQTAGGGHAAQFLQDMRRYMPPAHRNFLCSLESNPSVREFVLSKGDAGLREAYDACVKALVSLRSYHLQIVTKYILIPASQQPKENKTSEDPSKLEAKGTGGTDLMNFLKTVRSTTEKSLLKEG
PROTOCOL_DETAILS: IDO1 Cellular Assay in HeLa Cells Stimulated with IFNγ
Assay type: cell-based
APPLIED_CONDITIONS: read-out: HeLa Cell Potency, IC50
Kindly state pIC50 for each of the entries shown.
Worth noting: pIC50 values are minus log10 of concentrations stated in mol/L.

Returns the measured pIC50 for the input molecule. Input: Cc1cccc(N2CCN(C(=O)Cn3nc(C(=O)N4CCCC4)c4c3CCCC4)CC2)c1C [Example 2]
8.31

Returns the measured pIC50 for the input molecule. Input: Cc1cccc(N2CCN(C(=O)Cn3nc(C(=O)N4CCC(OCCO)CC4)c4c3CCC4)CC2)c1C [Example 120]
8.53

Returns the measured pIC50 for the input molecule. Input: Cc1cccc(N2CCN(C(=O)Cn3nc(C(=O)N4CC[C@@H](O)[C@@H](F)C4)c4c3CC(F)C4)CC2)c1C (single isomer, unassigned) [Example 418]
7.50

Returns the measured pIC50 for the input molecule. Input: Cc1cccc(N2CCN(C(=O)Cn3nc(C(=O)N4CC[C@H](O)[C@@H](C)C4)c4c3C[C@H]3C[C@@H]43)CC2)c1C [Example 282]
9.01

Returns the measured pIC50 for the input molecule. Input: COc1cccc(N2CCN(C(=O)Cn3nc(C(=O)N4C[C@@H](C)O[C@@H](C)C4)c4c3CCC4)CC2)c1 [Example 29]
6.50

Returns the measured pIC50 for the input molecule. Input: Cc1cccc(N2CCN(C(=O)Cn3nc(C(=O)N4CCC(O)CC4)c4c3C[C@H]3C[C@@H]43)[C@H](C)C2)c1C [Example 335]
8.56

Returns the measured pIC50 for the input molecule. Input: CC(=O)NC1CCN(C(=O)c2nn(CC(=O)N3CCN(c4cccc(Cl)c4C)CC3)c3c2CC(F)CC3)CC1 (centres unmarked) [Example 367]
8.54

Returns the measured pIC50 for the input molecule. Input: C[C@@H]1CN(C(=O)c2nn(CC(=O)N3CCN(c4ccc5c(c4)CCCO5)CC3)c3c2CCC3)C[C@H](C)O1 [Example 73]
6.75

Returns the measured pIC50 for the input molecule. Input: Cc1cccc(N2CCN(C(=O)Cn3nc(C(=O)N4CCC(CO)CC4)c4c3C[C@H]3C[C@@H]43)CC2)c1C [Example 249]
9.21

Returns the measured pIC50 for the input molecule. Input: CC(=O)NC1CCN(C(=O)c2nn(CC(=O)N3CCN(c4cccc(C)c4C)CC3)c3c2[C@@H]2C[C@@H]2C3)CC1 [Example 229]
8.97

Returns the measured pIC50 for the input molecule. Input: Cc1cccc(N2CCN(C(=O)Cn3nc(C(=O)N4CCC(O)C(F)(F)C4)c4c3CCC4)CC2)c1C (centres unmarked) [Example 149]
8.40

Returns the measured pIC50 for the input molecule. Input: Cc1cccc(N2CCN(C(=O)Cn3nc(C(=O)N4CCN(C(=O)CN)CC4)c4c3CCC4)CC2)c1C [Example 398]
6.59

Returns the measured pIC50 for the input molecule. Input: Cc1cccc(N2CCN(C(=O)Cn3nc(C(=O)N4CCC(CO)CC4)c4c3CCC4)CC2)c1C [Example 101]
8.21

Returns the measured pIC50 for the input molecule. Input: Cc1cccc(N2CCN(C(=O)Cn3nc(C(=O)N4CCC5(CCCC(=O)N5)CC4)c4c3CCC4)CC2)c1C [Example 183]
8.49
